# Test system: P-gp
# MEASUREMENT PROTOCOL: in vitro
# TEST CONTEXT: human, Caco-2, efflux/influx ratio, Caco-2, Drug alone
QUANTITY MEASURED: efflux ratio at 120 min, 5 μM

Which efflux ratio at 120 min, 5 μM is listed for CN(C)CCN1C(=O)c2cccc3cc(N)cc(c23)C1=O [Amonafide, amonafide] ?
0.9

====

# Tested on: P-gp
# MEASUREMENT PROTOCOL: in vitro
# TEST CONTEXT: human, MDCK-MDR1, efflux/influx ratio, Drug alone
QUANTITY MEASURED: efflux ratio at 120 min, 5 μM
Respond numerically, and do not add a unit to the figure.

Which efflux ratio at 120 min, 5 μM is listed for CN(C)CCN1C(=O)c2cccc3cc(N)cc(c23)C1=O [Amonafide, amonafide] ?
2.2

====

# Tested on: HL60 (human promyelocytic leukemia) cells
# MEASUREMENT PROTOCOL: WST-1 cell proliferation assay, HL60
# Assay type: cell-based
# TEST CONTEXT: HL-60, read-out: IC50 HL60
QUANTITY MEASURED: IC50 (µM)
Number only, in µM; omit the unit.

Record `COc1cccc2c1C(=O)c1c(O)c3c(c(O)c1C2=O)C[C@@](O)(C(C)=O)C[C@@H]3O[C@H]1C[C@H](N)[C@H](O)[C@H](C)O1` : what is its IC50 with HL60 (human promyelocytic leukemia) cells?
0.015

====

# Test system: HL60/VCR (HL60/MDR), a cell line selected for resistance to vincristine
# MEASUREMENT PROTOCOL: WST-1 cell proliferation assay, HL60/VCR
# TEST CONTEXT: Homo sapiens, HL60/VCR, read-out: IC50 HL60/MDR
QUANTITY MEASURED: pIC50
Kindly note that pIC50 refers to -log10 of the concentration in mol/L and answer with the value alone.

- MOLECULE: "COc1cccc2c1C(=O)c1c(O)c3c(c(O)c1C2=O)C[C@@](O)(C(=O)CO)C[C@@H]3O[C@H]1C[C@H](N)[C@H](O)[C@H](C)O1 [Doxorubicin, doxorubicin]"
  SYSTEM NAME: "HL60/VCR (HL60/MDR), a cell line selected for resistance to vincristine"
  pIC50: 6.79
- MOLECULE: "O=C1c2c(O)ccc(O)c2C(=O)c2c(NCCNCCO)ccc(NCCNCCO)c21 [Mitoxantrone, mitoxantrone]"
  SYSTEM NAME: "HL60/VCR (HL60/MDR), a cell line selected for resistance to vincristine"
  pIC50: 5.51
- MOLECULE: "CN(C)CCN1C(=O)c2cccc3cc(N)cc(c23)C1=O [Amonafide, amonafide]"
  SYSTEM NAME: "HL60/VCR (HL60/MDR), a cell line selected for resistance to vincristine"
  pIC50: 5.69

With those in mind, consider the next molecule.
Record COc1cccc2c1C(=O)c1c(O)c3c(c(O)c1C2=O)C[C@@](O)(C(C)=O)C[C@@H]3O[C@H]1C[C@H](N)[C@H](O)[C@H](C)O1 [Daunorubicin, daunorubicin] : what is its pIC50 with HL60/VCR (HL60/MDR), a cell line selected for resistance to vincristine?
7.04

====

The entries below are paired with their reported pIC50.
# Tested on: HL60 (human promyelocytic leukemia) cells
# MEASUREMENT PROTOCOL: WST-1 cell proliferation assay, HL60
# Format: cell-based
# TEST CONTEXT: HL-60, wild-type HL60, WST-1, read-out: IC50 HL60
Kindly note that pIC50 refers to -log10 of the concentration in mol/L and answer with the value alone.

Which pIC50 is listed for `COc1cccc2c1C(=O)c1c(O)c3c(c(O)c1C2=O)C[C@@](O)(C(=O)CO)C[C@@H]3O[C@H]1C[C@H](N)[C@H](O)[C@H](C)O1` ?
7.48

Which pIC50 is listed for CN(C)CCN1C(=O)c2cccc3cc(N)cc(c23)C1=O [Amonafide, amonafide] ?
5.16

Which pIC50 is listed for `O=C1c2c(O)ccc(O)c2C(=O)c2c(NCCNCCO)ccc(NCCNCCO)c21` ?
8.10

====

# System: IGROV1 (human ovarian) cell line
# MEASUREMENT PROTOCOL: SRB cell proliferation assay, IGROV1
# Type: cell-based
# TEST CONTEXT: IGROV-1, IGROV1, experiment (3), read-out: IC50
QUANTITY MEASURED: pIC50
Kindly note that pIC50 refers to -log10 of the concentration in mol/L and answer with the value alone.

Which pIC50 is listed for CN(C)CCN1C(=O)c2cccc3cc(N)cc(c23)C1=O [Amonafide, amonafide] ?
5.60
